# Organism: Sus scrofa
# Procedure Details: Inhibition of tubulin polymerization in porcine brain assessed as disruption of microtubule organization after 1 hr by fluorescence polarization assay
Recorded Endpoint: inhibition

{"Compound": "CCOC(=O)c1c(C)[nH]c(C)c1C(=O)CSC1=Nc2ccccc2C2CC=NN12 (stereo not given)", "inhibition": "Dose-dependent effect"}
{"Compound": "O=C(c1c[nH]c2ccccc12)C(NCc1ccc2c(c1)OCO2)c1ccccc1 (stereo not given)", "inhibition": "Dose-dependent effect"}
{"Compound": "CC(=O)Nc1ccc(C2=CC(c3ccc(Cl)cc3Cl)n3nc(CCCO)nc3N2)cc1 (stereo not given)", "inhibition": "Dose-dependent effect"}
{"Compound": "Cn1cc(SCC(=O)N2N=C(c3cccs3)CC2c2ccc(F)cc2)c2ccccc21 (stereo not given)", "inhibition": "Dose-dependent effect"}

Now turn to the next compound.
q: Give me measured inhibition, please, for this compound: COc1ccc(NS(=O)(=O)c2ccc3c(c2)N(C(C)=O)CC(C)O3)cc1Cl (stereo not given)
a: Dose-dependent effect

----------
# Organism: Sus scrofa
# Procedure Details: Inhibition of tubulin polymerization in porcine brain assessed as disruption of microtubule organization after 1 hr by fluorescence polarization assay
Recorded Endpoint: inhibition

Field: example entries. Status: answers known.
{"Molecule": "CCOc1ccc(-n2c(SCC(=O)N3CCOCC3)nnc2-c2cccc(C)c2)cc1", "inhibition": "Dose-dependent effect"}
{"Molecule": "Cc1cc(C)c(O)c(-c2n[nH]c3c2C(c2ccccc2)N(CCCO)C3=O)c1 (configuration not stated)", "inhibition": "Dose-dependent effect"}
{"Molecule": "Cc1ccc(-n2c(SCC(=O)N3CC(=O)Nc4ccccc43)nnc2-c2cccc(C)c2)cc1", "inhibition": "Dose-dependent effect"}
{"Molecule": "CCc1cccc(NC(=O)c2cnn3c(C(F)F)cc(-c4ccc(C)cc4)nc23)c1", "inhibition": "Dose-dependent effect"}
{"Molecule": "CCOC(=O)c1c(NC(=O)C2CC(=O)Nc3ccccc32)sc(C)c1C (configuration not stated)", "inhibition": "Dose-dependent effect"}

q: For the molecule "COc1ccc(C)cc1NC(=O)c1cnn2c(C(F)F)cc(-c3ccc(C)cc3)nc12" , give its measured inhibition value.
a: Dose-dependent effect

q: Supply measured inhibition of "COc1cc2c(=O)c(C(=O)c3ccc(C)c(C)c3)cn(Cc3ccc(F)cc3)c2cc1OC" in your reply.
a: Dose-dependent effect

q: Respond only with inhibition recorded for COc1ccc(C2CCCN2CC(=O)Nc2ccccc2-c2ccccc2)cc1 (configuration not stated)
a: Dose-dependent effect

q: Please report inhibition for the following molecule: "Cc1cccc(-c2nnc(SCC(=O)c3ccc(O)cc3O)n2-c2ccccc2)c1"
a: Dose-dependent effect

q: Read the entry "Cc1n[nH]c(O)c1C(c1cccc(OCc2ccc(F)cc2)c1)c1c(O)n[nH]c1C" and write its reported inhibition.
a: Dose-dependent effect

q: Kindly indicate its recorded inhibition. Item: O=C(CSc1nnc(-c2c[nH]c3ccccc23)n1CC1CCCO1)c1ccc(Cl)s1 (configuration not stated)
a: Dose-dependent effect

q: Please report inhibition for the following molecule: "COc1ccc(-c2cc(C(F)F)n3ncc(C(=O)Nc4cc(Cl)ccc4O)c3n2)cc1"
a: Dose-dependent effect

----------
# System: SH-SY5Y
# Procedure Details: Antiproliferative activity against human SH-SY5Y cells after 72 hrs by MTT assay
# Format: functional, cell-based
Recorded Endpoint: pIC50
The read-out pIC50 is expressed as -log10 of concentration in moles per litre.

q: Given the compound "COc1ccc(-c2cc(C(F)F)n3ncc(C(=O)Nc4cc(Cl)ccc4O)c3n2)cc1" , write its reported pIC50.
a: 4.40

q: Fill in reported pIC50 for this entry: Cc1cccc(-n2nc(C)c3c2NC2=C(C(=O)CC(C)(C)C2)C3c2ccc(O)cc2)c1 (stereo unspecified)
a: 4.15

q: # return recorded pIC50 for input CCOC(=O)c1c(NC(=O)C2CC(=O)Nc3ccccc32)sc(C)c1C (stereo unspecified)
a: 4.17

q: Determine its reported pIC50: CCOC(=O)C1CCCN(C(=O)c2cc(-c3ccc(Cl)cc3)nc3ccccc23)C1 (stereo unspecified)
a: 4.42

q: Please indicate pIC50 recorded for "Cc1ccc(NC(=O)Cn2c(C(F)(F)F)nc3ccccc32)c(-c2nc(C3CC3)n[nH]2)c1"
a: 6.05

q: Look up pIC50 of "Cc1cccc(-c2nnc(SCC(=O)c3ccc(O)cc3O)n2-c2ccccc2)c1" and report it.
a: 4.90

q: Indicate its recorded pIC50; the compound in question is O=C(c1c[nH]c2ccccc12)C(NCc1ccc2c(c1)OCO2)c1ccccc1 (stereo unspecified)
a: 4.76

q: For the compound "CSc1ccccc1NC(=O)c1cnn2c(C(F)F)cc(-c3ccc(C)cc3)nc12" , give its measured pIC50 value.
a: 4.24

q: Kindly indicate its recorded pIC50. Item: O=C(CSc1nnc(-c2c[nH]c3ccccc23)n1CC1CCCO1)c1ccc(Cl)s1 (stereo unspecified)
a: 4.46

----------
# Procedure Details: Efflux ratio of apparent permeability from basolateral to apical over apical to basolateral side in MDCK2-MDR1 cells at 75 uM after 2 hrs by UV-visible spectroscopy
# Type: ADME, cell-based, Canis lupus familiaris
# Reported Conditions: dog, MDCK-MDR1
Please note: 1 applies when efflux ratio at 2 h, 75 µM is 1 or greater, and 0 applies otherwise.

q: Test whether the molecule CCCCN1C(=O)c2[nH]nc(-c3ccccc3O)c2C1c1ccc(OCC)cc1 (configuration not stated) records efflux ratio at 2 h, 75 µM of 1 or higher.
a: 0

q: Is the recorded value of efflux ratio at 2 h, 75 µM equal to or greater than 1 for this molecule? "COc1ccc(-c2cc(C(F)F)n3ncc(C(=O)Nc4cc(Cl)ccc4O)c3n2)cc1"
a: 1

q: Can CCOC(=O)c1c(C)[nH]c(C)c1C(=O)CSC1=Nc2ccccc2C2CC=NN12 (configuration not stated) be said to have efflux ratio at 2 h, 75 µM at or above 1?
a: 0

q: Could you please find out whether "NC(=O)C1CCN(c2nc(CSc3ccccc3)nc3sc4c(c23)CCCC4)CC1" has efflux ratio at 2 h, 75 µM that meets 1 or exceeds it?
a: 1

q: Is efflux ratio at 2 h, 75 µM for "Cc1cccc(-c2nnc(SCC(=O)c3ccc(O)cc3O)n2-c2ccccc2)c1" at or above 1?
a: 0

q: Given the entry Cn1cc(SCC(=O)N2N=C(c3cccs3)CC2c2ccc(F)cc2)c2ccccc21 (configuration not stated) , answer whether its efflux ratio at 2 h, 75 µM meets or surpasses 1.
a: 1

----------
# Tested on: HeLa
# Procedure Details: Antiproliferative activity against human HeLa cells after 72 hrs by MTT assay
# Format: functional, cell-based
Recorded Endpoint: pIC50
Note on pIC50: it is the negative log10 of concentration, concentration in mol/L.

q: Give pIC50 for the following compound: COc1ccc(C2CCCN2CC(=O)Nc2ccccc2-c2ccccc2)cc1 (configuration not stated)
a: 4.68

q: Give pIC50 for "Cc1cccc(-n2ccnc2SCC(=O)c2ccc3c(c2)CCC(=O)N3)c1"
a: 4.09

q: Annotate the compound "NC(=O)C1CCN(c2nc(CSc3ccccc3)nc3sc4c(c23)CCCC4)CC1" with its measured pIC50.
a: 4.34

q: Identify measured pIC50 associated with "COc1ccc(C)cc1NC(=O)c1cnn2c(C(F)F)cc(-c3ccc(C)cc3)nc12"
a: 4.82

q: Provide only the value of recorded pIC50 for "Cc1cccc(-c2nnc(SCC(=O)c3ccc(O)cc3O)n2-c2ccccc2)c1"
a: 4.80

q: Supply measured pIC50 of CC(=O)Nc1ccc(C2=CC(c3ccc(Cl)cc3Cl)n3nc(CCCO)nc3N2)cc1 (configuration not stated) in your reply.
a: 4.20

q: Answer with the recorded pIC50 for the compound listed here: "CSc1ccccc1NC(=O)c1cnn2c(C(F)F)cc(-c3ccc(C)cc3)nc12"
a: 4.02

q: Indicate the recorded pIC50 value for this compound: COc1ccc(NS(=O)(=O)c2ccc3c(c2)N(C(C)=O)CC(C)O3)cc1Cl (configuration not stated)
a: 4.34

q: For "COc1ccc(-c2cc(C(F)F)n3ncc(C(=O)Nc4cc(Cl)ccc4O)c3n2)cc1" , write its pIC50.
a: 4.13

q: Given the compound CCOC(=O)C1CCCN(C(=O)c2cc(-c3ccc(Cl)cc3)nc3ccccc23)C1 (configuration not stated) , write its reported pIC50.
a: 4.26

q: Respond only with pIC50 recorded for CCCSc1nnc(N2C(=O)C(O)=C(C(=O)c3ccco3)C2c2ccccc2F)s1 (configuration not stated)
a: 4.26

q: Dear colleague, please send me the reported pIC50 for CCOC(=O)c1c(C)[nH]c(C)c1C(=O)CSC1=Nc2ccccc2C2CC=NN12 (configuration not stated) when you can.
a: 4.20

q: Look up and state reported pIC50 for "CCc1cccc(NC(=O)c2cnn3c(C(F)F)cc(-c4ccc(C)cc4)nc23)c1"
a: 4.02

q: Identify measured pIC50 corresponding to "Cc1n[nH]c(O)c1C(c1cccc(OCc2ccc(F)cc2)c1)c1c(O)n[nH]c1C"
a: 4.62

q: Output pIC50 of "COc1ccc(-c2nc3ccccc3c3nnc(SCc4ncc(C)c(OC)c4C)n23)cc1"
a: 4.72

q: Supply pIC50 value. Item: "CCOc1ccc(-n2c(SCC(=O)N3CCOCC3)nnc2-c2cccc(C)c2)cc1"
a: 4.21

q: State its pIC50: CCC(c1nnc(SCC(=O)c2[nH]c(C)c(C(C)=O)c2C)n1Cc1ccccc1)N(C)C (configuration not stated)
a: 4.13

q: Give recorded pIC50. Cc1cccc(-n2nc(C)c3c2NC2=C(C(=O)CC(C)(C)C2)C3c2ccc(O)cc2)c1 (configuration not stated)
a: 4.97

q: Supply measured pIC50 of "O=C(Cn1cc(CNC2(c3ccccc3F)CCCC2)c2ccccc21)NC1CC1" in your reply.
a: 4.28

q: Give the measured pIC50 for O=C(CSc1nnc(-c2c[nH]c3ccccc23)n1CC1CCCO1)c1ccc(Cl)s1 (configuration not stated)
a: 4.34

q: Look up and state reported pIC50 for Cn1cc(SCC(=O)N2N=C(c3cccs3)CC2c2ccc(F)cc2)c2ccccc21 (configuration not stated)
a: 4.36
